Test system: HCT-116 cell line
Test: Inhibition of cell growth, MTT tetrazolium salt assay
Assay type: cell-based
Conditions: HCT-116 cells, 0.1 μM compound
Tick Met if HCT-116 % Inhibition at 0.1 μM is 7% or greater. Tick Not met if HCT-116 % Inhibition at 0.1 μM is less than 7%.

> print(dat)
                                   compound  category.label
1  Nc1nc(Nc2ccc(C(=O)NCc3cccc(F)c3)cc2)sc1C(=O)c1c(F)cccc1F             Met

# check: HCT-116 % Inhibition at 0.1 μM of Nc1nc(Nc2ccc(C(=O)NCC(O)CO)cc2)sc1C(=O)c1c(F)cccc1F (centres unmarked) is greater than or equal to 7%
Not met

Could you do the same for CC(C)c1cccc(NC(=O)c2ccc(Nc3nc(N)c(C(=O)c4c(F)cccc4F)s3)cc2)c1 , please?
Met

Could you do the same for Nc1nc(Nc2ccc(C(=O)NCCc3cccnc3)cc2)sc1C(=O)c1c(F)cccc1F , please?
Met

Could you do the same for Nc1nc(Nc2ccc(C(=O)NCc3ccncc3)cc2)sc1C(=O)c1c(F)cccc1F , please?
Met

Could you do the same for CCCN(CCc1ccccn1)C(=O)c1ccc(Nc2nc(N)c(C(=O)c3c(F)cccc3F)s2)cc1 , please?
Met

Could you do the same for Nc1nc(Nc2ccc(C(=O)N3CCN(c4ccncc4)CC3)cc2)sc1C(=O)c1c(F)cccc1F , please?
Not met

* * *

Would you mind telling me the reported pKi of each entry?
Biological target: human CDK4/cyclin D3 (Homo sapiens)
Sequence (P11802 whole entry): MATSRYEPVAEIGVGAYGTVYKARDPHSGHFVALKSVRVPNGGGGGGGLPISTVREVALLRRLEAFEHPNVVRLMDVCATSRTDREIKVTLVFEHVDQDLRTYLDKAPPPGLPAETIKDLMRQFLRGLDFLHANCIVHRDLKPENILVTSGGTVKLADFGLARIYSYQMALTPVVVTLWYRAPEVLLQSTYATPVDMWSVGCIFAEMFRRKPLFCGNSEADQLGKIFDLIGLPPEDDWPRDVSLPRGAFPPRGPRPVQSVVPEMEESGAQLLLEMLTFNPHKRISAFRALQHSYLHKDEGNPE
Sequence (P30281 1-264 partner limits assumed): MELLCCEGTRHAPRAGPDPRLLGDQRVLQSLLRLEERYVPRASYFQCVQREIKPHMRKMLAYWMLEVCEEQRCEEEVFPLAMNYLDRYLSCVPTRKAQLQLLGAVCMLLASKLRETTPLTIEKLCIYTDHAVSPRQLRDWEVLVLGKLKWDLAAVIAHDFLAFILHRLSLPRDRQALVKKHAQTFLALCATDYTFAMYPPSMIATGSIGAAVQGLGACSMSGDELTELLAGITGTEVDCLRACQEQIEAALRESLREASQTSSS
Test: Inhibition of CDK4/cyclin D retinoblastoma kinase activity (Ki; % inhibition)
Details: apparent Ki, CDK4/cyclin D3, Rb substrate
Counter-ions that a name gives are not always drawn.
Answers are plain numbers, as −log10 of the molar value.

Worked examples follow.
> print(dat)
                                   molecule                                  tgt  quantity.measured  assay.value
1  CNC(C)(C)CNC(=O)c1ccc(Nc2nc(N)c(C(=O)c3c(F)cccc3F)s2)cc1 [Example A18, Acetic Acid Salt]  human CDK4/cyclin D3 (Homo sapiens)                pKi         8.22
2  CN(C)CCNC(=O)c1cccc(Nc2nc(N)c(C(=O)c3c(F)cccc3F)s2)c1 [F]  human CDK4/cyclin D3 (Homo sapiens)                pKi         6.85
3  CC(C)N(CCNC(=O)c1ccc(Nc2nc(N)c(C(=O)c3c(F)cccc3F)s2)cc1)C(C)C [Example A23]  human CDK4/cyclin D3 (Homo sapiens)                pKi         8.10
4  CN(C)CCNC(=O)c1ccc(Nc2nc(N)c(C(=O)c3c(F)cccc3F)s2)cc1Cl [C]  human CDK4/cyclin D3 (Homo sapiens)                pKi         7.57
5  Cn1cnc(CNC(=O)c2ccc(Nc3nc(N)c(C(=O)c4c(F)cccc4F)s3)cc2)c1 [Example A63, Trifluoroacetic Acid Salt]  human CDK4/cyclin D3 (Homo sapiens)                pKi         7.74
6  Nc1nc(Nc2ccc(C(=O)NC[C@@H]3CCCN3)cc2)sc1C(=O)c1c(F)cccc1F [Example A8]  human CDK4/cyclin D3 (Homo sapiens)                pKi         8.30

Items follow; give pKi for each.
1. Nc1nc(Nc2ccc(C(=O)NCc3nccs3)cc2)sc1C(=O)c1c(F)cccc1F [Example A49, Hydrochloride]
2. CN1C[C@H](O)C[C@H]1CNC(=O)c1ccc(Nc2nc(N)c(C(=O)c3c(F)cccc3F)s2)cc1 [Example A54]

7.96
8.05

Items follow; give pKi for each.
1. Cc1ccncc1C(=O)c1sc(Nc2ccc(C(=O)NC[C@@H]3CCCN3C)cc2)nc1N [Example A59, Hydrochloride Salt]
2. CN1CC[C@@H](NC(=O)c2ccc(Nc3nc(N)c(C(=O)c4c(F)cccc4F)s3)cc2)C1 [Example A30]
3. CC(C)OCCNC(=O)c1ccc(Nc2nc(N)c(C(=O)c3c(F)cccc3F)s2)cc1 [Example A7]
4. CN1CCC[C@H]1CNC(=O)c1ccc(Nc2nc(N)c(C(=O)c3c(F)cccc3F)s2)cc1 [Example A31, Dihydrochloride]
5. Nc1nc(Nc2ccc(C(=O)NCCO)cc2)sc1C(=O)c1c(Cl)cccc1Cl [Example B2]
6. CN1CCC[C@H]1CNC(=O)c1ccc(Nc2nc(N)c(C(=O)c3ccccc3F)s2)cc1 [Example A67, Trifluoroacetic Acid Salt]
7. CC(CN(C)C)NC(=O)c1ccc(Nc2nc(N)c(C(=O)c3c(F)cccc3F)s2)cc1O (stereo not drawn) [Example D2]

[7.01, 8.15, 7.59, 8.15, 7.74, 7.06, 7.60]

Items follow; give pKi for each.
1. CC(=O)N1CCC[C@H]1CNC(=O)c1ccc(Nc2nc(N)c(C(=O)c3c(F)cccc3F)s2)cc1 [Example A10]
2. Nc1nc(Nc2ccc(C(=O)Nc3cccnc3)cc2)sc1C(=O)c1c(F)cccc1F [Example A27]
3. Nc1nc(Nc2ccc(C(=O)NCCN3CCCCC3)cc2)sc1C(=O)c1c(F)cccc1F [Example A15]
4. Cc1ccc(CNC(=O)c2ccc(Nc3nc(N)c(C(=O)c4c(F)cccc4F)s3)cc2)o1 [Example A6]
5. CN1CCC[C@H]1CNC(=O)c1ccc(Nc2nc(N)c(C(=O)c3c(F)cccc3Cl)s2)cc1 [Example A71]
6. C[C@@H](CNC(=O)c1ccc(Nc2nc(N)c(C(=O)c3c(F)cccc3F)s2)cc1)N(C)C [Example A42]
7. C[C@H](CN1CCCCC1)NC(=O)c1ccc(Nc2nc(N)c(C(=O)c3c(F)cccc3F)s2)cc1 [Example A46, Trifluoroacetate Salt]
8. CN(C)CCNC(=O)c1ccc(Nc2nc(N)c(C(=O)c3c(Cl)cccc3Cl)s2)cc1 [Example B4]

1. 7.31
2. 7.39
3. 8.15
4. 7.82
5. 7.09
6. 7.64
7. 7.82
8. 8.10

Items follow; give pKi for each.
1. CN(C)C1(CNC(=O)c2ccc(Nc3nc(N)c(C(=O)c4c(F)cccc4F)s3)cc2)CCCC1 [Example A77]
2. CN1CC(CNC(=O)c2ccc(Nc3nc(N)c(C(=O)c4c(F)cccc4F)s3)cc2)C1 [Example A75]
3. Nc1nc(Nc2ccc(C(=O)NCCNc3ccccc3)c(O)c2)sc1C(=O)c1c(F)cccc1F [Example D1]
4. Cc1cc(F)c(C(=O)c2sc(Nc3ccc(C(=O)NC[C@@H]4CCCN4C)cc3)nc2N)c(F)c1 [Example A68]
5. Nc1nc(Nc2ccc(C(=O)NCC3CCCCN3)cc2)sc1C(=O)c1c(F)cccc1F (stereo not drawn) [Example A33, Trifluoroacetate Salt]
6. Cn1ccnc1CNC(=O)c1ccc(Nc2nc(N)c(C(=O)c3c(F)cccc3F)s2)cc1 [Example A50, Hydrochloride Salt]

1. 8.28
2. 7.29
3. 7.77
4. 7.35
5. 8.00
6. 7.82

Query: pKi; subject: CC(CCCC(C)(C)O)NC(=O)c1ccc(Nc2nc(N)c(C(=O)c3c(F)cccc3F)s2)cc1 (stereo not drawn) [Example A5]
7.18
